Field: pIC50. System: FBXL10 (Homo sapiens (Human), UniProt Q8NHM5). Provenance: assorted publications.
pIC50: −log10 of the molar value.

O=C(O)c1ccnc(-c2cn(Cc3cccc(C(F)(F)F)c3)cn2)c1: ≥ 7.00
O=C(O)c1ccnc(-c2cn(CCc3ccccc3C(F)(F)F)cn2)c1: ≥ 7.00
CN(C)C(=O)CNCc1cc(/C=N\C2CC2)ccn1: 5.60 to 6.60
Fc1ccc(Cl)cc1Nc1cnccc1-c1nn[nH]c1C(F)(F)F: 5.00 to 6.00
CCN1CCCC1CNC(=O)CNCc1cc(C=O)ccn1 (centres unmarked): < 5.60
CCN(CCN(C)C)C(=O)CNCc1cc(CNC(=O)C(F)(F)F)ccn1: < 5.60

pIC50 recorded for this compound, CC(c1ccccc1)c1cc(O)n(-c2cc(C(=O)O)ccn2)n1 (centres unmarked) , is > 7.00

pIC50 recorded for this compound, C#CCN(C)C(=O)CNCc1cc(/C=N/C2CC2)ccn1 , is < 5.60

pIC50 recorded for this compound, O=C(O)c1ccnc(-c2cn(CCNCC3CCC(F)(F)CC3)cn2)c1 , is ≥ 7.00

pIC50 recorded for this compound, CN(CCn1cnc(-c2cc(C(=O)O)ccn2)c1)c1ccccc1 , is ≥ 7.00

pIC50 recorded for this compound, CCCC(NCC(=O)N1CCCCC1)c1cc(C(=O)O)ccn1 (centres unmarked) , is 5.60 to 6.60

====

Field: IC50. System: FBXL10 (Homo sapiens (Human), UniProt Q8NHM5). Provenance: assorted publications.

Cn1cnc(-c2cc(C(=O)O)ccn2)c1-c1ccc(-n2cccn2)cc1: 100 to 1000 nM
CCCCCCCC/N=C/c1ccnc(CNCC(=O)N(CC)CC)c1: 250 to 2500 nM
Cn1cnc(-c2cc(C(=O)O)ccn2)c1-c1ccc(OC(F)(F)F)cc1: 100 to 1000 nM
COc1ccc2cc(C(=O)C3CCCN(C4CCCC4)C3)ccc2c1CC#N (stereo not drawn): 39.5 nM
O=C(O)c1ccnc(-n2nc(Cc3ccccc3Cl)cc2O)c1: < 100 nM
COc1ccc([C@@H](C)N2CCC[C@H](CNCc3cc(C(=O)O)ccn3)C2=O)cc1: < 250 nM
CC(C)C(c1ccccc1)n1cnc(-c2cc(-c3nn[nH]n3)ccn2)c1 (stereo not drawn): ≤ 100 nM
CCc1ccc(-c2c(-c3cc(C(=O)O)ccn3)ncn2C)cc1: 100 to 1000 nM

For the next question, use this compound.
IC50 recorded for this compound, COc1ccccc1CCn1cnc(-c2cc(-c3c[nH]nn3)ccn2)c1 , is ≤ 100 nM

====

pIC50: −log10 of the molar value.
Field: pIC50. System: FBXL10 (Homo sapiens (Human), UniProt Q8NHM5). Provenance: assorted publications.

CCN1CCN(C2=N[C@H](C)CN2S(=O)(=O)c2ccc(C(C)C)cc2)CC1: 8.06
CN(C)CCOCCn1cnc(-c2cc(C(=O)O)ccn2)c1: 6.00 to 7.00
CCN(C[C@@H]1CCC[C@@H]1N(C)C)C(=O)CNCc1cc(/C=N/CCO)ccn1: < 5.60
O=C(O)c1ccnc(-c2cn(CCc3ccc(F)cc3)cn2)c1: ≥ 7.00

For the next question, use this compound.
pIC50 recorded for this compound, Cn1cnc(-c2cc(C(=O)O)ccn2)c1-c1ccc(Cl)c(F)c1 , is ≥ 7.00
